Numbers sourced from paper PMC6680510.

- System: SiHa cells
- assay_text: IC50 assay (inhibition of proliferation, 4 h exposure, SRB)
- measurement_conditions: SiHa, pHe 6.5
measurement_kind: ACR (anoxic cytotoxicity ratio = oxic IC50/anoxic IC50)

Summary for this compound, Cc1ccc2c(c1)[n+]([O-])nc(CCC(=O)O)[n+]2[O-] : ACR (anoxic cytotoxicity ratio = oxic IC50/anoxic IC50) is 1.99 ± 0.90

Summary for this compound, O=C(O)CNc1n[n+]([O-])c2ccccc2[n+]1[O-] : ACR (anoxic cytotoxicity ratio = oxic IC50/anoxic IC50) is >15

Summary for this compound, [O-][n+]1nc(CCCN2CCOCC2)[n+]([O-])c2cc3c(cc21)CCC3 [Compound 2, SN30000, reference compound] : ACR (anoxic cytotoxicity ratio = oxic IC50/anoxic IC50) is 46 ± 18.0

Summary for this compound, COC(=O)CCc1n[n+]([O-])c2ccccc2[n+]1[O-] : ACR (anoxic cytotoxicity ratio = oxic IC50/anoxic IC50) is 14.5 ± 5.4

Summary for this compound, Cc1ccc2c(c1)[n+]([O-])c(CCC(=O)O)n[n+]2[O-] : ACR (anoxic cytotoxicity ratio = oxic IC50/anoxic IC50) is >2.7

Summary for this compound, CCOC(=O)CCCNc1n[n+]([O-])c2ccccc2[n+]1[O-] [Compound 11b] : ACR (anoxic cytotoxicity ratio = oxic IC50/anoxic IC50) is 3.04 ±0.44

Summary for this compound, COC(=O)CCc1n[n+]([O-])c2cc3c(cc2[n+]1[O-])CCC3 : ACR (anoxic cytotoxicity ratio = oxic IC50/anoxic IC50) is 13.0 ± 3.0

Summary for this compound, COC(=O)CNc1n[n+]([O-])c2cc3c(cc2[n+]1[O-])CCC3 : ACR (anoxic cytotoxicity ratio = oxic IC50/anoxic IC50) is 3.87 ±0.73

Summary for this compound, CCOC(=O)CNc1n[n+]([O-])c2ccccc2[n+]1[O-] : ACR (anoxic cytotoxicity ratio = oxic IC50/anoxic IC50) is 8.6 ± 3.8

* * *

- System: SiHa cells
- assay_text: IC50 assay (inhibition of proliferation, 4 h exposure, SRB)
- measurement_conditions: SiHa, anoxic
What PCR Anoxic (IC50 at pHe 7.4/IC50 at pHe 6.5) was measured for each of the following?
Lab note: record the figure alone, no unit after it.

Summary for this compound, COC(=O)CCc1n[n+]([O-])c2cc3c(cc2[n+]1[O-])CCC3 : PCR Anoxic (IC50 at pHe 7.4/IC50 at pHe 6.5) is 0.48

Summary for this compound, CCOC(=O)CNc1n[n+]([O-])c2ccccc2[n+]1[O-] : PCR Anoxic (IC50 at pHe 7.4/IC50 at pHe 6.5) is 0.48

Summary for this compound, COC(=O)CCc1n[n+]([O-])c2ccccc2[n+]1[O-] : PCR Anoxic (IC50 at pHe 7.4/IC50 at pHe 6.5) is 0.78

Summary for this compound, O=C(O)CNc1n[n+]([O-])c2ccccc2[n+]1[O-] : PCR Anoxic (IC50 at pHe 7.4/IC50 at pHe 6.5) is 1.14

Summary for this compound, COC(=O)CNc1n[n+]([O-])c2cc3c(cc2[n+]1[O-])CCC3 : PCR Anoxic (IC50 at pHe 7.4/IC50 at pHe 6.5) is 0.74

Summary for this compound, Cc1ccc2c(c1)[n+]([O-])nc(CCC(=O)O)[n+]2[O-] : PCR Anoxic (IC50 at pHe 7.4/IC50 at pHe 6.5) is 2.41

Summary for this compound, [O-][n+]1nc(CCCN2CCOCC2)[n+]([O-])c2cc3c(cc21)CCC3 [Compound 2, SN30000, reference compound] : PCR Anoxic (IC50 at pHe 7.4/IC50 at pHe 6.5) is 0.52

Summary for this compound, Cc1ccc2c(c1)[n+]([O-])c(CCC(=O)O)n[n+]2[O-] : PCR Anoxic (IC50 at pHe 7.4/IC50 at pHe 6.5) is 3.24

Summary for this compound, O=C(O)CCc1n[n+]([O-])c2ccccc2[n+]1[O-] : PCR Anoxic (IC50 at pHe 7.4/IC50 at pHe 6.5) is 2.68

Summary for this compound, Nc1n[n+]([O-])c2ccccc2[n+]1[O-] [Compound 3, tirapazamine, reference compound] : PCR Anoxic (IC50 at pHe 7.4/IC50 at pHe 6.5) is 0.97

Summary for this compound, COC(=O)CCNc1n[n+]([O-])c2cc3c(cc2[n+]1[O-])CCC3 [Compound 10b] : PCR Anoxic (IC50 at pHe 7.4/IC50 at pHe 6.5) is 0.97

Summary for this compound, CCOC(=O)CCCNc1n[n+]([O-])c2ccccc2[n+]1[O-] [Compound 11b] : PCR Anoxic (IC50 at pHe 7.4/IC50 at pHe 6.5) is 0.81

Summary for this compound, O=C(O)CCc1n[n+]([O-])c2cc3c(cc2[n+]1[O-])CCC3 : PCR Anoxic (IC50 at pHe 7.4/IC50 at pHe 6.5) is 2.02

* * *

What solubility was measured for each of the following?
- assay_text: Solubility in AlphaMEM + 5% FBS, pH 7.4
- measurement_conditions: culture medium (AlphaMEM + 5% FBS), pH 7.4, plasma or biological fluid, thermodynamic from solid
Express the result in mM but write the number alone.

Summary for this molecule, COC(=O)CCc1n[n+]([O-])c2ccccc2[n+]1[O-] : solubility is 17.7

Summary for this molecule, O=C(O)CCc1n[n+]([O-])c2cc3c(cc2[n+]1[O-])CCC3 : solubility is 24.8

Summary for this molecule, CCOC(=O)CNc1n[n+]([O-])c2ccccc2[n+]1[O-] : solubility is 8.6

Summary for this molecule, COC(=O)CNc1n[n+]([O-])c2cc3c(cc2[n+]1[O-])CCC3 : solubility is 0.07

Summary for this molecule, O=C(O)CNc1n[n+]([O-])c2ccccc2[n+]1[O-] : solubility is 8.7

Summary for this molecule, COC(=O)CCNc1n[n+]([O-])c2cc3c(cc2[n+]1[O-])CCC3 [Compound 10b] : solubility is 0.35

Summary for this molecule, COC(=O)CCc1n[n+]([O-])c2cc3c(cc2[n+]1[O-])CCC3 : solubility is 0.28

* * *

- System: FaDu cells
- assay_text: IC50 assay (inhibition of proliferation, 4 h exposure, SRB)
- Type: cell-based
- measurement_conditions: Homo sapiens, 4 h, pHe 7.4, 4 h, oxic, read-out: Oxic IC50
measurement_kind: pIC50
Kindly note that pIC50 refers to -log10 of the concentration in mol/L and answer with the value alone.

Summary for this compound, O=C(O)CCCc1ccc(N(CCCl)CCCl)cc1 : pIC50 is 4.82

Summary for this compound, Nc1n[n+]([O-])c2ccccc2[n+]1[O-] [Compound 3, tirapazamine, reference compound] : pIC50 is 3.74

Summary for this compound, CCOC(=O)CNc1n[n+]([O-])c2ccccc2[n+]1[O-] : pIC50 is 3.99

* * *

- Tested on: SiHa cells
- assay_text: IC50 assay (inhibition of proliferation, 4 h exposure, SRB)
- measurement_conditions: SiHa, pHe 7.4
measurement_kind: ACR (anoxic cytotoxicity ratio = oxic IC50/anoxic IC50)
Lab note: record the figure alone, no unit after it.

Summary for this compound, O=C(O)CCc1n[n+]([O-])c2cc3c(cc2[n+]1[O-])CCC3 [Compound 7a] : ACR (anoxic cytotoxicity ratio = oxic IC50/anoxic IC50) is 4.31

Summary for this compound, COC(=O)CCNc1n[n+]([O-])c2cc3c(cc2[n+]1[O-])CCC3 [Compound 10b] : ACR (anoxic cytotoxicity ratio = oxic IC50/anoxic IC50) is 12.2

Summary for this compound, COC(=O)CCc1n[n+]([O-])c2ccccc2[n+]1[O-] [Compound 4b] : ACR (anoxic cytotoxicity ratio = oxic IC50/anoxic IC50) is 24.6

Summary for this compound, CCOC(=O)CNc1n[n+]([O-])c2ccccc2[n+]1[O-] [Compound 8b] : ACR (anoxic cytotoxicity ratio = oxic IC50/anoxic IC50) is 29.4

Summary for this compound, O=C(O)CCc1n[n+]([O-])c2ccccc2[n+]1[O-] [Compound 4a] : ACR (anoxic cytotoxicity ratio = oxic IC50/anoxic IC50) is 7.54

Summary for this compound, CCOC(=O)CCCNc1n[n+]([O-])c2ccccc2[n+]1[O-] [Compound 11b] : ACR (anoxic cytotoxicity ratio = oxic IC50/anoxic IC50) is 4.08

Summary for this compound, [O-][n+]1nc(CCCN2CCOCC2)[n+]([O-])c2cc3c(cc21)CCC3 [Compound 2, SN30000, reference compound] : ACR (anoxic cytotoxicity ratio = oxic IC50/anoxic IC50) is 101

* * *

- Tested on: SiHa cells
- assay_text: IC50 assay (inhibition of proliferation, 4 h exposure, SRB)
- measurement_conditions: Homo sapiens, SiHa, 4 h, read-out: Anoxic IC50, SiHa, pHe 7.4, 4 h, anoxic
pIC50: −log10 of the molar value.
The label depends only on pIC50: y if it is at least 5, n if it is smaller.

*Q* Given CCOC(=O)CCCNc1n[n+]([O-])c2ccccc2[n+]1[O-] [Compound 11b] , state whether its pIC50 is at least 5.
*A* y

*Q* Given O=C(O)CCc1n[n+]([O-])c2ccccc2[n+]1[O-] , state whether its pIC50 is at least 5.
*A* n

*Q* Given Cc1ccc2c(c1)[n+]([O-])nc(CCC(=O)O)[n+]2[O-] , state whether its pIC50 is at least 5.
*A* n

*Q* Given [O-][n+]1nc(CCCN2CCOCC2)[n+]([O-])c2cc3c(cc21)CCC3 [Compound 2, SN30000, reference compound] , state whether its pIC50 is at least 5.
*A* y

*Q* Given Cc1ccc2c(c1)[n+]([O-])c(CCC(=O)O)n[n+]2[O-] , state whether its pIC50 is at least 5.
*A* n

*Q* Given COC(=O)CCc1n[n+]([O-])c2ccccc2[n+]1[O-] , state whether its pIC50 is at least 5.
*A* y

*Q* Given Cc1ccc2c(c1)[n+]([O-])nc(NCCCC(=O)O)[n+]2[O-] [Compound 12a] , state whether its pIC50 is at least 5.
*A* n
